Values were extracted from paper PMC11597697.

Test system: PC-3 (prostate adenocarcinoma)
TEST: Antiproliferative MTT assay, PC-3
Format: cell-based
PARTICULARS: Homo sapiens; pure compounds; 48 h treatment, MTT; read-out: IC50 PC-3
Provide the reported pIC50 of each item.
One number for each entry, as −log10 of the molar value.

Worked cases, answers included:
# MOLECULE, pIC50
records = [
    ("COc1cc(C=C2C(=O)OCC2Cc2ccc(O)c(OC)c2)ccc1O (single isomer, unassigned; (+)) [Compound 2, (+)-acutissimalignan B]", 5.18),
    ("COc1cc2c(OC)c3c(c(-c4ccc5c(c4)OCO5)c2cc1OC)C(=O)OC3OC (centres unmarked)", 4.82),
    ("O=C1OC[C@H](Cc2ccc3c(c2)OCO3)[C@H]1Cc1ccc2c(c1)OCO2 [Compound 4, (−)-hinokinin]", 5.34),
    ("COc1cc2c(OC)c3c(c(-c4ccc5c(c4)OCO5)c2cc1O)C(=O)OC3", 4.79),
]

Briefly, pIC50 measured for COc1cc2c(OC)c3c(c(-c4ccc5c(c4)OCO5)c2cc1OC)C(=O)OC3 : 4.75

* * *

Tested on: SiHa (cervical carcinoma)
TEST: Antiproliferative MTT assay, SiHa
Format: cell-based
PARTICULARS: Homo sapiens, pure compounds, 48 h treatment, MTT, read-out: IC50 SiHa
Exercise: for every item that follows, state its recorded IC50.
One number for each entry, in µM.

# COMPOUND, ASSAYED TARGET, TEST VALUE
records = [
    ("COc1cc(C=C2C(=O)OCC2Cc2ccc(O)c(OC)c2)ccc1O (single isomer, unassigned; (+)) [Compound 2, (+)-acutissimalignan B]", "SiHa (cervical carcinoma)", 56.8),
    ("COc1cc2c(OC)c3c(c(-c4ccc5c(c4)OCO5)c2cc1OC)C(=O)OC3OC (centres unmarked) [Compound 7, justicidin P]", "SiHa (cervical carcinoma)", 5.23),
    ("COc1cc2c(OC)c3c(c(-c4ccc5c(c4)OCO5)c2cc1OC)C(=O)OC3 [Compound 5, justicidin A]", "SiHa (cervical carcinoma)", 6.53),
    ("COc1cc2c(OC)c3c(c(-c4ccc5c(c4)OCO5)c2cc1O)C(=O)OC3 [Compound 3, phyllanthusmin A]", "SiHa (cervical carcinoma)", 8.61),
]

Let's switch to this compound now.
Query O=C1OC[C@H](Cc2ccc3c(c2)OCO3)[C@H]1Cc1ccc2c(c1)OCO2 [Compound 4, (−)-hinokinin] yields IC50 of 61.2

* * *

Test system: A549 (lung carcinoma)
TEST: Antiproliferative MTT assay, A549
Type: cell-based
PARTICULARS: Homo sapiens, A549, 48 h, read-out: IC50 A549
QUANTITY NAME: IC50 (µM)
Answers are plain numbers, in µM.

# COMPOUND, TEST VALUE
records = [
    ("COc1cc(-c2c3c(c(OC)c4cc5c(cc24)OCO5)C(OC(C)=O)OC3=O)cc2c1OCO2 (single isomer, unassigned; (+))", 26.5),
]

GET /value?item= COc1cc([C@@H]2c3cc4c(cc3[C@H](O)[C@H]3COC(=O)[C@H]23)OCO4)cc(OC)c1OC [ppt, podophyllotoxin, reference compound] &field=IC50 returns 4.82

* * *

Tested on: A549 (lung carcinoma)
TEST: Antiproliferative MTT assay, A549
Assay type: cell-based
PARTICULARS: Homo sapiens, A549; pure compounds; 48 h treatment, MTT; read-out: IC50 A549
Assign labels as follows, please: label 1 for IC50 below 50 µM; label 0 for IC50 equal to or exceeding 50 µM.

These recorded examples may help you get a feel for the data.
# MOLECULE, LABEL
measured = [
    ("COc1cc2c(OC)c3c(c(-c4ccc5c(c4)OCO5)c2cc1O)C(=O)OC3", "label 0"),
    ("O=C1OC[C@H](Cc2ccc3c(c2)OCO3)[C@H]1Cc1ccc2c(c1)OCO2 [Compound 4, (−)-hinokinin]", "label 1"),
    ("COc1cc(C=C2C(=O)OCC2Cc2ccc(O)c(OC)c2)ccc1O (single isomer, unassigned; (+)) [Compound 2, (+)-acutissimalignan B]", "label 0"),
]

Shifting focus to the molecule that follows.
Strictly below 50 µM: is that where IC50 of COc1cc2c(OC)c3c(c(-c4ccc5c(c4)OCO5)c2cc1OC)C(=O)OC3OC (centres unmarked) sits?
label 1
